meta.source: PubChem BioAssay AID1159580

# method_summary: chemical genetic growth profiling, strain panel (AID 1159580);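 also: tested at 20 µM; growth read once vehicle control cultures reached saturation at 30 °C; 1 = growth at the plate median or of vehicle wells; lower values mean less growth of the strain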
# stated_conditions: S. cerevisiae deletion strains, growth OD, locus YDL028C, strain MPS1, stronger effect = lower value
In all, about 5,500 compounds went through this assay and about 2,000 (36%) were called active. Not shown: some 18% with an inconclusive outcome. The list shows a part of the results.
measurement_kind: normalized growth
The answer should be written as a number, with no unit following it.

A selection of reference data follows.
COc1ccc(C2CC(c3ccc(C)cc3C)=NN2C(C)=O)cc1 (stereo unspecified) = 0.984
N#C/C(=N/Nc1cccc(C(F)(F)F)c1)C(=O)c1csc(-c2cccnc2)n1 = 0.962

Which normalized growth is listed for CS/C(Nc1cccc(C(F)(F)F)c1)=C(/C#N)S(=O)(=O)c1ccc(Cl)cc1 ?
0.957

Which normalized growth is listed for FC(F)(F)c1cc(-c2ccc(Cl)cc2)n[nH]1 ?
0.918

Which normalized growth is listed for Clc1ccc(N/N=C\c2sccc2Oc2ccccc2)cc1 ?
0.968

Which normalized growth is listed for C/C(=N/NC(=O)c1ccc(C(C)(C)C)cc1)c1ccccc1O ?
0.974
